Parameter: GI50. Scope: all listed entries.
system: SK-OV-3; test: NCI tumour cell line growth inhibition, 48 h
Calls of active or inactive are those of the source. Rule as the data show it: active = GI50 up to about 1.1 µM and inactive = higher.

Field: example entries. Status: answers known.
CCCN1CN(C(C(=O)N[C@@H]2C(=O)N3C(C(=O)O)=C(C)CSC23)c2ccc(O)cc2)CSC1=S (stereo partly specified)	> 100 µM (inactive)
C=C1C(=O)C23C(O)C1CCC2C12CO[C@]3(O)[C@@H](O)C1C(C)(C)CCC2O (stereo partly specified)	20.3 µM (inactive)
O=[N+]([O-])c1oc2ccc3ccccc3c2c1CCO	1.05 µM (active)
Cc1cc2ccc(OC(=O)c3ccc(NC(=N)N)cc3)cc2oc1=O	19.1 µM (inactive)
C/C(=C\CNc1ncnc2c1ncn2CCC(=O)OC(C)(C)C)CO	> 100 µM (inactive)
c1ccc2c(c1)nnn1c3cnccc3nc21	42.2 µM (inactive)
CCN(CCCl)CCCCCNc1c2ccccc2nc2ccc(OC)cc12	1.47 µM (inactive)
CCCC/C=C1\CCC(CN2CCCC2)C1=O (stereo unspecified)	28.5 µM (inactive)
O=S1(=O)OCCOS(=O)(=O)C1(I)I	21.9 µM (inactive)
Cc1nc2ccccc2c(=O)n1NC(=O)c1ccccn1	> 100 µM (inactive)

GET /values?readout=GI50&item= O=C1NC(N2CCCCC2)=N/C1=C\c1cccs1
> 100 µM (inactive)
